# System: 565726-208-R1-J5-PDC complex spheroids, growth inhibition;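 note: spheroids exposed to compounds for seven days before readout; 100% = DMSO vehicle control viability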
# assay-procedure: Anticancer human tumor 565726-208-R1-J5-PDC patient-derived pancreatic adenocarcinoma cell line growth inhibition [RAS]
# measurement-context: second compound 0.003 µM; first compound 3.16 µM; hits give low values
quantity-measured: viability, T/C (%)
Express your answer in %, writing the number without its unit.

>  <molecule>
NC1c2ccccc2OC12CCN(c1cnc3c(N4CCCc5ncccc54)n[nH]c3n1)CC2 (centres undefined) + CCn1c(-c2cc(N3CCN(C)CC3)cnc2C(C)OC)c2c3cc(ccc31)-c1csc(n1)CC(NC(=O)C1CC1C)C(=O)N1CCCC(N1)C(=O)OCC(C)(C)C2

>  <numeric-value>
16.9

$$$$
>  <molecule>
CC(C)NCC(C(=O)N1CCN(c2ncnc3c2C(C)CC3O)CC1)c1ccc(Cl)cc1 (centres undefined) + CCn1c(-c2cccnc2C(C)OC)c2c3cc(ccc31)N1CCOC(CC(NC(=O)C(C(C)C)N(C)C(=O)C3(F)CCN(C(=O)C#CC(C)(C)N(C)C)CC3)C(=O)N3CCCC(N3)C(=O)OCC(C)(C)C2)C1

>  <numeric-value>
84.2

$$$$
>  <molecule>
CC(Nc1ccc2c(c1)OCCn1cc(N3C(=O)OCC3C(F)F)nc1-2)C(N)=O (centres undefined) + CCn1c(-c2cc(N3CCN(C)CC3)cnc2C(C)OC)c2c3cc(ccc31)-c1csc(n1)CC(NC(=O)C1CC1C)C(=O)N1CCCC(N1)C(=O)OCC(C)(C)C2

>  <numeric-value>
36.3

$$$$

API: the following record is the query input.
In plain terms, CC(C)NCC(C(=O)N1CCN(c2ncnc3c2C(C)CC3O)CC1)c1ccc(Cl)cc1 (centres undefined) + CCn1c(-c2cc(N3CCN(C)CC3)cnc2C(C)OC)c2c3cc(ccc31)-c1csc(n1)CC(NC(=O)C1CC1C)C(=O)N1CCCC(N1)C(=O)OCC(C)(C)C2 has a documented viability, T/C of 38.3
